target: EGFR (Homo sapiens (Human), UniProt P00533)
Sequence (P00533 25-1210): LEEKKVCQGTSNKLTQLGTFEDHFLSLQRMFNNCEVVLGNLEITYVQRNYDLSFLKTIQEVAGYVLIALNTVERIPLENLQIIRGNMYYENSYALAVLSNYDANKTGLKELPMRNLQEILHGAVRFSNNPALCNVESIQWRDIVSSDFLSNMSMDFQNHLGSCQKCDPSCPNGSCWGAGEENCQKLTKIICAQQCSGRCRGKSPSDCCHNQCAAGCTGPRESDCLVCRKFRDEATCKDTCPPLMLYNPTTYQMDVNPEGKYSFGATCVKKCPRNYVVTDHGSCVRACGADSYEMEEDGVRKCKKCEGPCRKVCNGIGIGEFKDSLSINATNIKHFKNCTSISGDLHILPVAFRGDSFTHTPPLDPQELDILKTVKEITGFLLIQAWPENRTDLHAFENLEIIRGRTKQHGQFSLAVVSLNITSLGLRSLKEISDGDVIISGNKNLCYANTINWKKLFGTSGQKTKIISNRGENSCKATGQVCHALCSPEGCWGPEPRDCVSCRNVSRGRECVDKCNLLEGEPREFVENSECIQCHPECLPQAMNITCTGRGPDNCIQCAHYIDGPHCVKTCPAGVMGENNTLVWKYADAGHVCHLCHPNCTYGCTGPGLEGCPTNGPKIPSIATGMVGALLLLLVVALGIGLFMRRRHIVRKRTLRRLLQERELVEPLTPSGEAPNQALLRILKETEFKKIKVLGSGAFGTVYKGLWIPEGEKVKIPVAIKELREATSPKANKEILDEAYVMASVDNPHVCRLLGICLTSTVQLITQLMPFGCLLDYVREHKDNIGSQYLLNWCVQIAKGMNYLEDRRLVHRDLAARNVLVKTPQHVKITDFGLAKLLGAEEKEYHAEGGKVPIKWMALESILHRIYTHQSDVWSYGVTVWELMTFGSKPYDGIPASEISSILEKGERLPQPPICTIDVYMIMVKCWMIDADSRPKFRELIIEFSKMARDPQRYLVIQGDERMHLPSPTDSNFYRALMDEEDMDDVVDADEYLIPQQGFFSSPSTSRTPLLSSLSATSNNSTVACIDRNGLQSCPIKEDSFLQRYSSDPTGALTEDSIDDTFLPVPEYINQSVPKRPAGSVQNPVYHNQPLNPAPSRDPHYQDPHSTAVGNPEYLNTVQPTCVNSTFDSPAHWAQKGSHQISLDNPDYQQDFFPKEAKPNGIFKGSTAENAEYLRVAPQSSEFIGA
Measured IC50 by item

Cc1cc(Nc2ncnc3cnc(N4CC[C@@H](C#N)C4)nc23)ccc1Oc1ccn2ncnc2c1 | 7.55 µM

query: Suppose we examine the compound Cc1cc(Nc2ncnc3cnc(N4CCOCC4)nc23)ccc1Oc1ccc2c(c1)ncn2C1CC1 [Example 73, 2,2,2-trifluoroacetate] ; what IC50 value has been reported?
result: ≥ 10 µM

query: Next entry: Cc1cc(Nc2ncnc3cnc(N4CC5CC(C4)C5O)nc23)ccc1Oc1ccc2c(c1)ncn2C (stereo not shown)
result: ≥ 10 µM

query: Then this compound: Cc1cc(Nc2ncnc3cnc(N(C)[C@H]4C[C@H](O)C4)nc23)ccc1Oc1ccc2c(c1)ncn2C
result: 0.592 µM

query: Same for O[C@H]1CN(c2ncc3ncnc(Nc4ccc(Oc5ccn6ncnc6c5)c(Cl)c4)c3n2)CC[C@@H]1F
result: 1.99 µM

query: Please answer likewise for Cn1cnc2cc(Oc3ccc(Nc4ncnc5cnc(N6CC[C@@H]7COC[C@H]76)nc45)cc3Cl)ccc21
result: 3.37 µM

query: Also check Cc1cc(Nc2ncnc3cnc(O[C@@H]4CNC[C@@H]4F)nc23)ccc1Oc1ccc2c(c1)ncn2C [Example 86]
result: ≥ 10 µM

query: Now the same for COc1ncc2ncnc(Nc3ccc(Oc4ccc5c(C)onc5c4)c(C)c3)c2n1
result: ≥ 10 µM

query: Next compound up: Cc1cc(Nc2ncnc3cnc(N(C)CC(C)(C)O)nc23)ccc1Oc1cc(F)c2c(c1)ncn2C
result: 4.58 µM

query: # iterate: Cc1cc(Nc2ncnc3cnc(OCC4(F)CN(C)C4)nc23)ccc1Oc1ccc2c(c1)ncn2C
result: ≥ 10 µM

query: Check Clc1cc(Nc2ncnc3cnc(N4CCC4)nc23)ccc1Oc1ccn2ncnc2c1 too.
result: ≥ 10 µM

query: Check Cc1cc(Nc2ncnc3cnc(N(C)C4CC4)nc23)ccc1Oc1ccc2c(c1)ncn2C too.
result: ≥ 10 µM

query: Now give it for Cc1cc(Nc2ncnc3cnc(N4CCN5CCOC[C@H]5C4)nc23)ccc1Oc1ccn2ncnc2c1 too.
result: 6.86 µM

query: Param item: Cc1cc(Nc2ncnc3cnc(N4C[C@H]5CC[C@@H]4CO5)nc23)ccc1Oc1ccn2ncnc2c1
result: ≥ 10 µM

query: What do you have for Cc1cc(Nc2ncnc3cnc(OCC(F)F)nc23)ccc1Oc1ccc2c(c1)ncn2C ?
result: ≥ 10 µM

query: Request: Cc1cc(Nc2ncnc3cnc(N(C)CC4(O)CCC4)nc23)ccc1Oc1ccc2c(c1)ncn2C
result: ≥ 10 µM

###

biological target: ErbB2 with Exon 20 YVMA insertion (HER2-YVMA) (Homo sapiens (Human), UniProt P04626, INS775YVMA); assay: Cellular phosphorylation assay, constitutive ErbB2 phosphorylation (Y1196) in engineered NIH 3T3 cells, Assay 4
Sequence (P04626 other isoform, or with tags, fused parts or gaps ins YVMA behind 775): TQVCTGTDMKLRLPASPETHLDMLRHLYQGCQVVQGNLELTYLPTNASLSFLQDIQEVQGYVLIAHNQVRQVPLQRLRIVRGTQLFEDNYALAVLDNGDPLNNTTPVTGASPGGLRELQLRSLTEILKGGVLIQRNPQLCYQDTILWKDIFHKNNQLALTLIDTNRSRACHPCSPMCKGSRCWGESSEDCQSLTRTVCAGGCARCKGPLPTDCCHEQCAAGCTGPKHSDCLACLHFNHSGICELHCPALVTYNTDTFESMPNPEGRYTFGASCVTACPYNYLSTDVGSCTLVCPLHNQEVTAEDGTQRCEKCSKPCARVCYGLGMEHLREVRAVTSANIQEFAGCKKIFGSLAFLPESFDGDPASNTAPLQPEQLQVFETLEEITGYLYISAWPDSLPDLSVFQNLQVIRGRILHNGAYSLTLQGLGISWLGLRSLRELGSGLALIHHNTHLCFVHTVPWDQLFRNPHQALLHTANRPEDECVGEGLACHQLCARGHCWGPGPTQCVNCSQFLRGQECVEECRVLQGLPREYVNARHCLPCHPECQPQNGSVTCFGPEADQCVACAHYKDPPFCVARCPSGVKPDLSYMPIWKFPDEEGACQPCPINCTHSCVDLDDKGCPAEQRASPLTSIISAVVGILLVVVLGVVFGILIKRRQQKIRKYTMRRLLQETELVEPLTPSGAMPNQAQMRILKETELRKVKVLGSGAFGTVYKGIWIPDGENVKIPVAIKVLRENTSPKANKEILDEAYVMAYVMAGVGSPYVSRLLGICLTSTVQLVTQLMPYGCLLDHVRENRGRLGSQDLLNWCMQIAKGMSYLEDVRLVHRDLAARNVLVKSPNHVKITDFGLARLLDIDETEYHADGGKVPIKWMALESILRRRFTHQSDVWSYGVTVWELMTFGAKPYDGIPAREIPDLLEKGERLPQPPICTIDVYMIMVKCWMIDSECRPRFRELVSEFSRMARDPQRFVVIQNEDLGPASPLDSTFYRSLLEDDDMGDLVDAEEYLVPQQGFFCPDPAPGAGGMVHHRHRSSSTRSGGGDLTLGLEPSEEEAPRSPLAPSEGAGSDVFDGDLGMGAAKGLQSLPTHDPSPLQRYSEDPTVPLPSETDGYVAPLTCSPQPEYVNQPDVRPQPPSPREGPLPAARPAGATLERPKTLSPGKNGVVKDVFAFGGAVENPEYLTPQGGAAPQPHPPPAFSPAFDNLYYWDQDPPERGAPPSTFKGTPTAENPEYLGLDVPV
A collection of molecules and their measured IC50
Number in nM, nothing else.

# annotated cases, reported IC50 shown
Cc1cc(Nc2ncnc3cnc(NC4CC(F)(F)C4)nc23)ccc1Oc1ccc2c(c1)ncn2C | 165
Cc1nc(-c2ncc3ncnc(Nc4ccc(Oc5ccc6c(c5)ncn6C)c(C)c4)c3n2)cs1 | 3.5

query: Query: IC50; subject: Cc1cc(Nc2ncnc3cnc(N4C[C@H](O)C(F)(F)C4)nc23)ccc1Oc1ccc2c(c1)ncn2C
result: 3.4

query: Follow-up entry: Cc1cc(Nc2ncnc3cnc(NC45CC(C4)C5)nc23)ccc1Oc1ccc2c(c1)ncn2C
result: 47.8

Every entry's value here was drawn from patent US11834453B2.
